Target: Human glucocorticoid receptors (Homo sapiens)
Construct: made in house; host or cells: Sf9 insect cells, recombinant baculovirus (BAC-TO-BAC)
Assay: Radioligand filter binding assay, displacement of 3[H]-dexamethasone from hGR
Conditions: read-out: GR Binding (% Inhibition at 1.7 μM)
Protocol: Dexamethasone hereafter referred to as dex was purchased from SIGMA. […] Human glucocorticoid receptors were extracted from Sf9 cells infected with a recombinant baculovirus transfer vector containing the cloned hGR genes. […] The concentration of hGR in the extract was measured as specific ^3[H]-dex binding with the G25-assay as described in J. Steroid Biochem. Molec. […]
MEASURED_PROPERTY: inhibition at 1.7 µM
Just the number plus its unit, please.

Example cases with answers are listed next.
{"columns": ["COMPOUND", "MEASURED_PROPERTY", "RECORDED_RESULT"],
 "data": [
  ["Cc1c(NS(C)(=O)=O)cccc1N(Cc1ccccc1)Cc1ccc(C(=O)c2ccc(OC[C@H](O)CO)cc2)cc1 [Example 250]", "inhibition at 1.7 µM", "92.9%"],
  ["Cc1c(NS(C)(=O)=O)cccc1N(Cc1ccccc1)Cc1ccc(Oc2ccc(CCC(=O)NCCCCCO)cc2)cc1 [Example 149]", "inhibition at 1.7 µM", "94.7%"],
  ["CC#CCCOc1ccc(CN(Cc2ccc(F)cc2F)c2cccc(NS(C)(=O)=O)c2C)cc1 [Example 143]", "inhibition at 1.7 µM", "89.3%"]
]}

Now take the following compound into account.
Respond only with inhibition at 1.7 µM recorded for Cc1c(NS(C)(=O)=O)cccc1N(Cc1ccc(Oc2ccc(Cl)c(OCC(=O)O)c2)cc1)Cc1ccc(C(=O)c2ccccc2)cc1 [Example 314] 96.6%

====

Target: Human glucocorticoid receptors (Homo sapiens, UniProt P04150)
Construct: made in house; host or cells: Sf9 insect cells, recombinant baculovirus (BAC-TO-BAC)
Sequence (P04150 1-777): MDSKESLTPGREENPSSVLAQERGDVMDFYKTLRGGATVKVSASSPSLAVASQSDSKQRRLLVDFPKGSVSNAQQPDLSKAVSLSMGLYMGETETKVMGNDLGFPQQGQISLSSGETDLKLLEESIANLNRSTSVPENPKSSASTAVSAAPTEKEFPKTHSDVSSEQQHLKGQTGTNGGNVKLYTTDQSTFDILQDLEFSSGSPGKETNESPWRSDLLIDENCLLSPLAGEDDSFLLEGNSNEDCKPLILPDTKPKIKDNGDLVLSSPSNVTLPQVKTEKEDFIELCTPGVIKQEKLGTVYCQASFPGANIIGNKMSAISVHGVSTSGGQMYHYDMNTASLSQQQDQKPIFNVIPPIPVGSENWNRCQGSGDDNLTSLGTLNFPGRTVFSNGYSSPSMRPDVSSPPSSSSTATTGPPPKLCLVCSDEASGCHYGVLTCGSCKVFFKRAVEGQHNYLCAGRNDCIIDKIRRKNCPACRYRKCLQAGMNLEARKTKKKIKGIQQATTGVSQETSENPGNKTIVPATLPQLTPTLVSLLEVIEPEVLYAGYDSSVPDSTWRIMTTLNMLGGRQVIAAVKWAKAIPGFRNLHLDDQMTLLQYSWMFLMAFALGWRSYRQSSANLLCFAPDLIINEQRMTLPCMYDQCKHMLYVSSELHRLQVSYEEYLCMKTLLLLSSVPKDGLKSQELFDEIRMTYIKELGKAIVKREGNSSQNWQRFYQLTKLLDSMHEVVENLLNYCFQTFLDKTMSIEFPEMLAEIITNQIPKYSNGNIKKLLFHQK
Test: Radioligand filter binding assay, displacement of 3[H]-dexamethasone from hGR
Conditions: read-out: GR Binding (% Inhibition at 1.7 μM)
MEASURED_PROPERTY: inhibition at 1.7 µM (%)
Quick note: give the figure in %, leave out the unit.

Example cases with answers are listed next.
{"columns": ["MOLECULE", "RECORDED_RESULT"],
 "data": [
  ["Cc1c(NS(C)(=O)=O)cccc1N(Cc1ccccc1)Cc1ccc(Oc2cccc(OCCCC(=O)N3CCCC(C(=O)O)C3)c2)cc1 (stereo not shown) [Example 279]", 91.7],
  ["Cc1c(NS(C)(=O)=O)cccc1N(Cc1ccccc1)Cc1ccc(Oc2ccc(OCCCCC(=O)N[C@@H](CO)C(=O)O)cc2)cc1 [Example 269]", 90.7]
]}

Under Human glucocorticoid receptors (Homo sapiens, UniProt P04150): report inhibition at 1.7 µM of COc1ccc(CN(Cc2ccccc2C#N)c2cccc(NS(C)(=O)=O)c2C)c(F)c1 [Example 21] . 71.5

Under Human glucocorticoid receptors (Homo sapiens, UniProt P04150): report inhibition at 1.7 µM of CC[C@H](C)[C@H](NC(=O)CCCCOc1ccc(Oc2ccc(CN(Cc3ccccc3)c3cccc(NS(C)(=O)=O)c3C)cc2)cc1)C(=O)O [Example 270] . 91.1

Under Human glucocorticoid receptors (Homo sapiens, UniProt P04150): report inhibition at 1.7 µM of Cc1c(NS(C)(=O)=O)cccc1N(Cc1ccccc1)Cc1ccc(Oc2cccc(OCCCC(=O)N3CCC(C(=O)O)CC3)c2)cc1 [Example 280] . 89.5

Under Human glucocorticoid receptors (Homo sapiens, UniProt P04150): report inhibition at 1.7 µM of Cc1c(NS(C)(=O)=O)cccc1N(Cc1ccccc1)Cc1ccc(Oc2ccc(OCC(=O)N[C@@H](CO)C(=O)O)cc2)cc1 [Example 275] . 90.5

Under Human glucocorticoid receptors (Homo sapiens, UniProt P04150): report inhibition at 1.7 µM of Cc1c(NS(C)(=O)=O)cccc1N(Cc1ccccc1)Cc1ccc(Oc2ccc(OCCCCC(=O)N[C@H](C(=O)O)C(C)C)cc2)cc1 [Example 266] . 90.7

====

Item-by-item account of inhibition at 1.7 µM
target: Human glucocorticoid receptors (Homo sapiens, UniProt P04150); construct: made in house; host or cells: Sf9 insect cells, recombinant baculovirus (BAC-TO-BAC); test: Radioligand filter binding assay, displacement of 3[H]-dexamethasone from hGR; settings: read-out: GR Binding (% Inhibition at 1.7 μM)
Quick note: give the figure in %, leave out the unit.

Respond only with inhibition at 1.7 µM recorded for Cc1c(NS(C)(=O)=O)cccc1N(Cc1ccccc1)Cc1ccc(Oc2ccc(OCC(=O)N[C@H](C(=O)O)C(C)C)cc2)cc1 91.2

Respond only with inhibition at 1.7 µM recorded for Cc1c(NS(C)(=O)=O)cccc1N(Cc1ccccc1)Cc1ccc(Oc2cccc(OC3CCN(C)C3)c2)cc1 (stereo not drawn) 89.4

Respond only with inhibition at 1.7 µM recorded for Cc1c(NS(C)(=O)=O)cccc1N(Cc1ccccc1)Cc1ccc(Oc2ccc(OCC(=O)N[C@@H](CC(N)=O)C(=O)O)cc2)cc1 89.2

Respond only with inhibition at 1.7 µM recorded for Cc1c(NS(C)(=O)=O)cccc1N(Cc1ccccc1)Cc1ccc(Oc2ccc(CCC(=O)OCc3ccccc3)cc2)cc1 87.4

Respond only with inhibition at 1.7 µM recorded for CCOC(=O)CCCc1ccc(Oc2ccc(CN(Cc3ccccc3)c3cccc(NS(C)(=O)=O)c3C)cc2)cc1 93.5

====

target: Human glucocorticoid receptors (Homo sapiens, UniProt P04150); construct: made in house; host or cells: Sf9 insect cells, recombinant baculovirus (BAC-TO-BAC); test: Radioligand filter binding assay, displacement of 3[H]-dexamethasone from hGR; settings: read-out: GR Binding (% Inhibition at 1.7 μM)
Mark 1 (yes) for reported inhibition at 1.7 µM of 90% or greater; mark 0 (no) for anything smaller.

{"columns": ["MOLECULE", "ANSWER_LABEL"],
 "data": [
  ["Cc1c(NS(C)(=O)=O)cccc1N(Cc1ccccc1)Cc1ccc(C(=O)c2cccc(OCC3CCCO3)c2)cc1 (stereo not shown)", "1 (yes)"],
  ["Cc1c(NS(C)(=O)=O)cccc1N(Cc1ccc(Oc2ccc(Cl)c(OCC(=O)NCC(=O)O)c2)cc1)Cc1ccc(F)cc1F", "1 (yes)"]
]}

I'd appreciate it if you could say whether Cc1c(NS(C)(=O)=O)cccc1N(Cc1ccc(Oc2cccc(OCC(=O)O)c2)cc1)Cc1ccc(Cl)cc1F has inhibition at 1.7 µM at least equal to 90%. 1 (yes)

I'd appreciate it if you could say whether Cc1c(NS(C)(=O)=O)cccc1N(Cc1ccccc1)Cc1ccc(Oc2cccc(OCCNC(=O)CCC(=O)O)c2)cc1 has inhibition at 1.7 µM at least equal to 90%. 1 (yes)

I'd appreciate it if you could say whether Cc1c(NS(C)(=O)=O)cccc1N(Cc1ccccc1Br)C(C#N)c1ccccc1 (stereo not shown) has inhibition at 1.7 µM at least equal to 90%. 0 (no)

I'd appreciate it if you could say whether Cc1c(NS(C)(=O)=O)cccc1N(Cc1ccccc1)Cc1ccc(Oc2cccc(CCCO)c2)cc1 has inhibition at 1.7 µM at least equal to 90%. 1 (yes)

====

molecular target: Human glucocorticoid receptors (Homo sapiens); construct: made in house; host or cells: Sf9 insect cells, recombinant baculovirus (BAC-TO-BAC); assay: Radioligand filter binding assay, displacement of 3[H]-dexamethasone from hGR; conditions: read-out: GR Binding (% Inhibition at 1.7 μM)
Item-by-item account of inhibition at 1.7 µM
Quick note: give the figure in %, leave out the unit.

Respond only with inhibition at 1.7 µM recorded for Cc1c(NS(C)(=O)=O)cccc1N(Cc1ccccc1)Cc1ccc(Oc2cccc(OC[C@@H]3CCCN3C)c2)cc1 87.8

Respond only with inhibition at 1.7 µM recorded for Cc1c(NS(C)(=O)=O)cccc1N(Cc1ccccc1)Cc1ccc(Oc2ccc(OCCCC(=O)N[C@@H](CCC(N)=O)C(=O)O)cc2)cc1 91.3

Respond only with inhibition at 1.7 µM recorded for Cc1c(NS(C)(=O)=O)cccc1N(Cc1ccccc1)Cc1ccc(Oc2ccc(OCC(=O)NCCCC(=O)O)cc2)cc1 91

Respond only with inhibition at 1.7 µM recorded for Cc1c(NS(C)(=O)=O)cccc1N(Cc1ccccc1)Cc1ccc(Oc2cccc(OC3CCOCC3)c2)cc1 89.2

Respond only with inhibition at 1.7 µM recorded for Cc1c(NS(C)(=O)=O)cccc1N(Cc1ccccc1)Cc1ccc(Oc2cccc(OCCCC(=O)N3CCC[C@H]3C(=O)O)c2)cc1 89.9

Respond only with inhibition at 1.7 µM recorded for CC[C@H](C)[C@H](NC(=O)CCCOc1ccc(Oc2ccc(CN(Cc3ccccc3)c3cccc(NS(C)(=O)=O)c3C)cc2)cc1)C(=O)O 91.2

Respond only with inhibition at 1.7 µM recorded for Cc1c(NS(C)(=O)=O)cccc1N(Cc1ccccc1)Cc1ccc(Oc2ccc(OCCCCC(=O)N3CCC[C@H]3C(=O)O)cc2)cc1 92.2
